# target_entity: rat B1R (Rattus norvegicus)
# Construct: expressed in transfected cells; host or cells: CHO K1 cells
# Sequence (P97583 1-337): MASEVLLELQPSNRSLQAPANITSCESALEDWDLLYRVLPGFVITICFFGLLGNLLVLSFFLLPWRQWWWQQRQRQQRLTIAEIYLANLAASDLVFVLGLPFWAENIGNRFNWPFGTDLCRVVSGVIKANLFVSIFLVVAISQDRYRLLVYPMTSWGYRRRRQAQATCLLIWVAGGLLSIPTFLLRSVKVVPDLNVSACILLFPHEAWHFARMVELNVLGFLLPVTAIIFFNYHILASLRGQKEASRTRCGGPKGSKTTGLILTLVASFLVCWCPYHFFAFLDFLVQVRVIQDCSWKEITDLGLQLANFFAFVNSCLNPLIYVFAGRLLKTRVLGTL
# procedure_details: FLIPR Ca2+ functional study on bradykinin receptor 1 (rB1R CHO K1 cells)
# Type: cell-based
# run_conditions: CHO-K1, % inhibition rat B1R at 10 μM, read-out: % inh. (rat B1R) 10 μM
measured_attribute: inhibition at 10 µM (%)
Enter your answer as a number in %; do not include the unit.

COc1cc(C)c(S(=O)(=O)N2C[C@H](F)C[C@H]2COc2nccc(N3CCC4(CCN(c5ccncc5)CC4)CC3)n2)c(C)c1 ... 99
COc1cc(C)c(S(=O)(=O)N2CCCCC2COc2nccc(N3CCN(c4ccc(F)cc4)CC3)n2)c(C)c1 (centres unmarked) ... 70
COc1cc(C)c(S(=O)(=O)N2CCC[C@H]2COc2ccnc(N3CCC(c4cccs4)(N(C)C)CC3)n2)c(C)c1 ... 66
COc1cc(C)c(S(=O)(=O)N(CCN(C)c2cc(N3CCC4(CCN(c5ccncc5)CC4)CC3)ncn2)C2CC2)c(C)c1 ... 108
COc1cc(C)c(S(=O)(=O)N2CC(Oc3nccc(N4CCC(CCN5CCCCC5)CC4)n3)C2)c(C)c1 ... 73
COc1cc(C)c(S(=O)(=O)N(C)CCOc2nccc(N3CCC4(CCN(Cc5ccc(F)cc5)C4=O)CC3)n2)c(C)c1 ... 96

Next up:
[ask] // query inhibition at 10 µM value for entry `COc1cc(C)c(S(=O)(=O)N(CCOc2nccc(N3CCC4(CCC(N5CC(F)(F)C5)CC4)CC3)n2)C2CC2)c(C)c1`
[reply] 103

###

# target_entity: rat B1R (Rattus norvegicus)
# Construct: expressed in transfected cells; host or cells: CHO K1 cells
# Sequence (P97583 1-337): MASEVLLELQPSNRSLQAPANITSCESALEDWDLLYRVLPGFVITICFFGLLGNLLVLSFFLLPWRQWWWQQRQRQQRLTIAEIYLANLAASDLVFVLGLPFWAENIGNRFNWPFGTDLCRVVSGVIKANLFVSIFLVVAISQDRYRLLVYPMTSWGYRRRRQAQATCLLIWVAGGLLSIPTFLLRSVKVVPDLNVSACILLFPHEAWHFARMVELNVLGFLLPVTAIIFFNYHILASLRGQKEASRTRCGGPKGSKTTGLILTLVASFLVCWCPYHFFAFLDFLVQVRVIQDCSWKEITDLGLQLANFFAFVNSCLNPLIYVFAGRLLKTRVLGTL
# procedure_details: FLIPR Ca2+ functional study on bradykinin receptor 1 (rB1R CHO K1 cells)
# Format: cell-based
# run_conditions: CHO-K1, % inhibition rat B1R at 10 μM, read-out: % inh. (rat B1R) 10 μM
The entries below are paired with their reported inhibition at 10 µM.
Record the result as number plus unit.

Solved cases below.
COc1cc(C)c(S(=O)(=O)N2CCC[C@H]2COc2nccc(N3CCC(OCCN4CCCC4)(c4cccc(F)c4)CC3)n2)c(C)c1 [G_CC-086] ... 105%
COc1cc(C)c(S(=O)(=O)N2CCCCC2COc2nccc(N3CCC4(CC3)C(=O)NCN4c3ccccc3)n2)c(C)c1 (stereo not shown) [G_CC-025] ... 95%
COc1cc(C)c(S(=O)(=O)N2CCC[C@H]2COc2nccc(N3CCC(CCN4CCCC4)CC3)n2)c(C)c1 [G_CC-016] ... 100%

Next up:
[ask] Any idea what inhibition at 10 µM came out for CCCCC1(N(C)C)CCN(CCN(C)c2ccnc(OC[C@@H]3Cc4ccccc4N3S(=O)(=O)c3c(C)cc(OC)cc3C)n2)CC1 [G_CC-097] on rat B1R (Rattus norvegicus)?
[reply] 101%

###

The entries below are paired with their reported inhibition at 10 µM.
# target_entity: rat B1R (Rattus norvegicus)
# Construct: expressed in transfected cells; host or cells: CHO K1 cells
# procedure_details: FLIPR Ca2+ functional study on bradykinin receptor 1 (rB1R CHO K1 cells)
# Format: cell-based
# run_conditions: CHO-K1, % inhibition rat B1R at 10 μM, read-out: % inh. (rat B1R) 10 μM

[ask] // query inhibition at 10 µM value for entry COc1cc(C)c(S(=O)(=O)N2CCC[C@H]2COc2ccnc(N(C)CCN3CCC(Oc4ccncc4)CC3)n2)c(C)c1 [H_CC-051]
[reply] 99%

[ask] Same lookup for COc1cc(C)c(S(=O)(=O)N2c3ccccc3C[C@H]2COc2nccc(N3CCC(c4cccs4)(N(C)C)CC3)n2)c(C)c1 [G_CC-125] , please.
[reply] 58%

[ask] Same lookup for COc1cc(C)c(S(=O)(=O)N(C)CCOc2nccc(N3CCC4(CC3)C(=O)NCC4c3cccc(C(F)(F)F)c3)n2)c(C)c1 (stereo not shown) [G_CC-043] , please.
[reply] 70%

[ask] Same lookup for COc1cc(C)c(S(=O)(=O)N2CCC[C@H]2COc2nccc(N3CCC4(CC3)C(=O)N(C)CC4c3ccc(F)cc3)n2)c(C)c1 (stereo partly shown) [G_CC-050] , please.
[reply] 73%

###

# target_entity: rat B1R (Rattus norvegicus)
# Construct: expressed in transfected cells; host or cells: CHO K1 cells
# procedure_details: FLIPR Ca2+ functional study on bradykinin receptor 1 (rB1R CHO K1 cells)
# Type: cell-based
# run_conditions: CHO-K1, % inhibition rat B1R at 10 μM, read-out: % inh. (rat B1R) 10 μM
measured_attribute: inhibition at 10 µM (%)
Enter your answer as a number in %; do not include the unit.

COc1cc(C)c(S(=O)(=O)N2CCCC(Oc3ccnc(N(C)CCCN4CCC(c5ccccc5)(N(C)C)CC4)n3)C2)c(C)c1 (stereo not shown) [H_CC-073] ... 55
CN(C(COc1ccnc(N2CCC(OCCN3CCCC3)(c3cccnc3)CC2)n1)c1ccccc1)S(=O)(=O)c1ccc2ccccc2c1 (stereo not shown) [H_CC-038] ... 70
COc1cc(C)c(S(=O)(=O)N(C)CCOc2ccnc(N3CCC(OCCN4CCCC4)(c4cccnc4)CC3)n2)c(C)c1 [H_CC-033] ... 82
COc1cc(C)c(S(=O)(=O)N2CCC[C@H]2COc2ccnc(N3CCN(C)CC3)n2)c(C)c1 [H_CC-008] ... 95
CCCCC1(N(C)C)CCN(c2ccnc(OC[C@@H]3Cc4ccccc4N3S(=O)(=O)c3c(C)cc(OC)cc3C)n2)CC1 [G_CC-093] ... 91
COc1cc(C)c(S(=O)(=O)N2CCC[C@H]2COc2nccc(N3CCC4(CCN(Cc5ccccc5)C4)C3)n2)c(C)c1 (stereo partly shown) [G_CC-032] ... 105

Next up:
[ask] // query inhibition at 10 µM value for entry COc1cc(C)c(S(=O)(=O)N(CCOc2nccc(N3CCC(OCCN4CCCC4)(c4cccnc4)CC3)n2)C2CC2)c(C)c1 [Example G-007]
[reply] 97

###

# target_entity: rat B1R (Rattus norvegicus, UniProt P97583)
# Construct: expressed in transfected cells; host or cells: CHO K1 cells
# Sequence (P97583 1-337): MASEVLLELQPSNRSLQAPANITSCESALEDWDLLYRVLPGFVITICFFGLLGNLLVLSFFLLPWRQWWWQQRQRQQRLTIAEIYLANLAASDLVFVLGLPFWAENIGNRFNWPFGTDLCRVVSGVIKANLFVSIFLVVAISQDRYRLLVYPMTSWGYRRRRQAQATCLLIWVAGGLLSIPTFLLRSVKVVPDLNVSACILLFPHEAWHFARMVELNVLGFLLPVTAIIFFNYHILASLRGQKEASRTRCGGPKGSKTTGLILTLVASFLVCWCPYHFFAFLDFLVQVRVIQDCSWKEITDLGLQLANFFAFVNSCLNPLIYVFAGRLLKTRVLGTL
# procedure_details: FLIPR Ca2+ functional study on bradykinin receptor 1 (rB1R CHO K1 cells)
# Assay type: cell-based
# run_conditions: CHO-K1, % inhibition rat B1R at 10 μM, read-out: % inh. (rat B1R) 10 μM
Counter-ions that a name gives are not always drawn.
measured_attribute: inhibition at 10 µM (%)
Enter your answer as a number in %; do not include the unit.

COc1cc(C)c(S(=O)(=O)N2CCCCC2COc2ccnc(N3CCC(Oc4ccccn4)CC3)n2)c(C)c1 (stereo not drawn) ... 73
COc1cc(C)c(S(=O)(=O)N2CCCCC2COc2nccc(N3CCC4(CCN(Cc5ccccc5)C4=O)CC3)n2)c(C)c1 (stereo not drawn) ... 99
COc1cc(C)c(S(=O)(=O)N2CCCCC2COc2ccnc(N3CCN(C4CCN(C)CC4)CC3)n2)c(C)c1 (stereo not drawn) ... 65
COc1cc(C)c(S(=O)(=O)N(C)CCOc2nccc(N3CCC(c4ccccc4)(N(C)C)CC3)n2)c(C)c1 ... 56
COc1cc(C)c(S(=O)(=O)N(CCOc2nccc(N3CCC4(CCN(c5ccncc5)CC4)CC3)n2)C2CC2)c(C)c1 [Example G-005, hydrochloride] ... 96

[ask] Any idea what inhibition at 10 µM came out for COc1cc(C)c(S(=O)(=O)N2CCCC(Oc3ccnc(N(C)CCN4CCC(c5ccccc5)(N5CCCC5)CC4)n3)C2)c(C)c1 (stereo not drawn) on rat B1R (Rattus norvegicus, UniProt P97583)?
[reply] 56

[ask] Same lookup for COc1cc(C)c(S(=O)(=O)N2CCCCC2COc2ccnc(N3[C@@H]4CC[C@H]3CC(Oc3ccncc3)C4)n2)c(C)c1 (stereo partly drawn) , please.
[reply] 74

[ask] Same lookup for COc1cc(C)c(S(=O)(=O)N(CCOc2nccc(N3CCC4(CCC(N5CCC5)CC4)CC3)n2)C2CC2)c(C)c1 [Example G-015, hydrochloride] , please.
[reply] 95

[ask] Same lookup for `COc1cc(C)c(S(=O)(=O)N2CCC[C@H]2COc2nccc(N(C)CCN3CCC(c4ccccc4)(N4CCCC4)CC3)n2)c(C)c1` , please.
[reply] 101

[ask] Same lookup for COc1cc(C)c(S(=O)(=O)N2CCCCC2COc2nccc(N3CCC(c4ccccc4)(N4CCCC4)CC3)n2)c(C)c1 (stereo not drawn) , please.
[reply] 75

[ask] Same lookup for `COc1cc(C)c(S(=O)(=O)N2CCC[C@H]2COc2nccc(N(C)CCCN3CCC(c4ccccc4)(N(C)C)CC3)n2)c(C)c1` , please.
[reply] 104

// provenance: patent US8269000B2
